Biological target: Phosphoenolpyruvate carboxykinase, cytosolic [GTP] (Rattus norvegicus)
Test: PEPCK Assay (OAA to PEP)
Details: 25 °C
Description: OAA/PEP binding site. The activity of PEPCK in the direction from OAA to PEP was assayed with 50 mM HEPES (pH 7.5), 10 mM DTT, 4 mM MgCl2, 0.5 mM GTP, 1 mM ADP, 187.5 μM NADH, 45 units of LDH, 50 μg of PK, 0.2 mM MnCl2, and (∼1−2 μg) of PEPCK. The assay mixture was incubated for 5 min at 25 °C and the reaction started with the addition of OAA to a final concentration of 350 μM. A second reaction without PEPCK was run simultaneously to account for the spontaneous decarboxylation of OAA. […]
property-name: pKi
Answers are plain numbers, as −log10 of the molar value.

Memo: `O=C(O)c1ncccc1S` , reported pKi: 4.35

* * *

molecular target: Phosphoenolpyruvate carboxykinase, cytosolic [GTP] (Rattus norvegicus, UniProt P07379); test: PEPCK Assay (OAA to PEP-allosteric); conditions: 25 °C
Sequence (P07379 whole entry): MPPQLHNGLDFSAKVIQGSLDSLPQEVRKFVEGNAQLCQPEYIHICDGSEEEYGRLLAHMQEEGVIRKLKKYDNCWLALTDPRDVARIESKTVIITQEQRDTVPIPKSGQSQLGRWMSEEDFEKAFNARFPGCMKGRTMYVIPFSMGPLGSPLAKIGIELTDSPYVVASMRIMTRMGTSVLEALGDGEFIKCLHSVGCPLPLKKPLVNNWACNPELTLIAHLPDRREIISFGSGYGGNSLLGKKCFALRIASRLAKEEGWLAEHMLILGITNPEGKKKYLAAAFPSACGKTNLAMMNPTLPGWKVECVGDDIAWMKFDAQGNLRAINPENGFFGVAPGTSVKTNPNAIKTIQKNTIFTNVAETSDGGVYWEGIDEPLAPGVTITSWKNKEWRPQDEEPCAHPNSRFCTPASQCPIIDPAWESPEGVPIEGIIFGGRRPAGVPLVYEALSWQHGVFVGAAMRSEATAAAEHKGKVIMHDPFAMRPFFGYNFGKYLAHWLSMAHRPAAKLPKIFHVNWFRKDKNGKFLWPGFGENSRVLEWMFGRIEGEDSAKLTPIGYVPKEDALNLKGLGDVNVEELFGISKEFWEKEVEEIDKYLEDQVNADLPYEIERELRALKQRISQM
property-name: Ki (µM)
Answers are plain numbers, in µM.

Entry under test: O=C(O)c1ncccc1S [3-Mercaptopicolinic acid (MPA)] . Its Ki was 121
